Test system: Human tumour cells (cell line panel)
Test: Proliferation assay: cell line panel (crystal violet, 4 days)
Format: cell-based
Settings: A673, sarcoma, 5000 cells/well, read-out: Result Category, IC50 (mean)
Excerpt: Human tumour cells were originally obtained from the American Type Culture Collection (ATCC), from Cell Line Services GmbH (CLS), from the Deutsche Sammlung von Mikroorganismen und Zellkulturen (DSMZ, German Collection of Microorganisms and Cell Cultures), from the Japanese Cancer Research Resources Bank (JCRB), from Public Health England, from the European Collection of Authenticated Cell Cultures (ECACC), from Asterand Biosciences, or from the National Cancer Institute (NCI). […]
Parameter: IC50

Q: // IC50 lookup, key: "Brc1cnn2c(NCc3nc4ccccc4[nH]3)nc(N3CCOCC3)nc12"
Ans: ≤ 0.03 µM

From: patent US20230117034A1
